System: mESC Bmi1-luciferase reporter, firefly/renilla ratio, 24 h
Assay: compounds raising Bmi1 reporter signal – mouse embryonic stem cells, luciferase, cherry-pick, esBAF inhibitor project, dose response (AID 651717);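 further: luciferase knocked into Bmi1 locus with EF-1a renilla as cell number control; rising ratio signals esBAF inhibition which derepresses Bmi1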
Record form. Attribute: AC40. Fill in for each entry.

Examples from the recorded data:
[[record]]
molecule = "COc1ccc2c(=O)c3ccccc3oc2c1"
data_value = "4.7 µM"

[[record]]
molecule = "Cc1cccc(OCc2nc3ccccc3n2C)c1"
data_value = "6.7 µM"

[[record]]
molecule = "COc1ccc2c(c1)CC/C(=C/c1ccccn1)C2=O"
data_value = "1.86 µM"

[[record]]
molecule = "O=C(Nc1nc2ccc(Cl)cc2s1)c1cccc(N2C(=O)CCC2=O)c1"
data_value = "3.25 µM"

[[record]]
molecule = "CCOc1ccc2nc(NC(=O)CSc3nnc(-c4ccncc4)n3CC3CCCO3)sc2c1 (centres undefined)"
data_value = "7.34 µM"

[[record]]
molecule = "COc1ccc(-c2ccc3oc(-c4ccsc4)cc(=O)c3c2)cn1"
data_value = "1.67 µM"

[[record]]
molecule = "Cc1ccccc1C(=O)c1cccn1CC(=O)NCc1cccc(Cl)c1"
data_value = "13.6 µM"

[[record]]
molecule = "COC(=O)C(Cc1ccc(OC(=O)c2ccc(Cl)cc2)cc1)N1Cc2ccccc2C1=O (centres undefined)"
data_value = "3.13 µM"

[[record]]
molecule = "CO[C@H]1CN(C)C(=O)c2cc(NC(=O)Nc3ccc4c(c3)OCO4)ccc2OC[C@@H](C)NC[C@H]1C"
data_value = "8.26 µM"

[[record]]
molecule = "COc1cccc(N2CCN(C(=O)c3ccc4nc(N5CCCCC5)sc4c3)CC2)c1"
data_value = "5.88 µM"


Take each entry in turn and give its AC40.
1. Nc1nc(-c2cccc(F)c2)cs1
2. COc1ccc(N2CCN(C(=O)c3ccc(Cn4c(=S)[nH]c5ccc(N6CCOCC6)cc5c4=O)cc3)CC2)cc1
3. c1ccc(-c2noc(CC3CCCCC3)n2)cc1
4. C=CCn1c(-c2ccc(N)cc2)nc2ccccc21
5. CCc1sc(C(=O)Nc2ncccc2C)cc1C
6. CCCCCn1c(=O)c(C(=O)Nc2ccccc2Cl)c(O)c2ccccc21

result:
1: 6.13 µM; 2: 6.15 µM; 3: 4.12 µM; 4: 0.806 µM; 5: 20.1 µM; 6: 5.14 µM

Take each entry in turn and give its AC40.
1. O=c1[nH]cnc2nc(-c3ccc(N(CCCl)CCCl)cc3)[nH]c12
2. Cc1sc(NC(=O)C2CCCCC2C(=O)O)c(C(N)=O)c1-c1ccc(C(C)C)cc1 (centres undefined)
3. COc1ccccc1N1C(=O)S/C(=C\c2ccc(C)s2)C1=O
4. Cc1ccnc(NCc2cc(C)ccc2O)c1
5. COc1ccc(-c2cc3cc(OC)c(OC)cc3cn2)cc1
6. COc1cc(/C=C/c2ccccc2)cc(OC)c1

result:
["0.965 µM", "6.81 µM", "1.95 µM", "12.8 µM", "6.22 µM", "2.93 µM"]

Take each entry in turn and give its AC40.
1. Clc1ccc(N/N=C/c2cccnc2)cc1
2. CS(=O)(=O)c1ccc2nc(NC(=O)c3ccccc3Br)sc2c1

result:
1. 2.59 µM
2. 6.16 µM

###

Test system: mESC Bmi1-luciferase reporter, firefly/renilla ratio, 24 h
Assay: compounds raising Bmi1 reporter signal – mouse embryonic stem cells, luciferase, cherry-pick, esBAF inhibitor project, dose response (AID 651717);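 further: luciferase knocked into Bmi1 locus with EF-1a renilla as cell number control; rising ratio signals esBAF inhibition which derepresses Bmi1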
Record form. Attribute: AC40. Fill in for each entry.

Examples from the recorded data:
[[record]]
compound = "CO[C@H]1CN(C)C(=O)c2cc(NC(=O)Nc3ccc4c(c3)OCO4)ccc2OC[C@H](C)NC[C@@H]1C"
assay_target = "mESC Bmi1-luciferase reporter, firefly/renilla ratio, 24 h"
readout_label = "AC40"
data_value = "13.2 µM"

[[record]]
compound = "CCS(=O)(=O)n1nc(-c2ccc(Cl)cc2)nc1SC"
assay_target = "mESC Bmi1-luciferase reporter, firefly/renilla ratio, 24 h"
readout_label = "AC40"
data_value = "4.79 µM"


Take each entry in turn and give its AC40.
1. CCC(=O)Nc1nc(-c2ccc3c(c2)CC(C)N3S(C)(=O)=O)cs1 (stereo not drawn)
2. Cc1ccc(OCc2cnc(Cl)s2)c(C)c1
3. Clc1ccc(OCc2nc(-c3ccncc3)no2)cc1

result:
1. 7.5 µM
2. 4.12 µM
3. 10.8 µM

Take each entry in turn and give its AC40.
1. CCC1CCCCN1C(=O)c1ccc2nc(Cc3ccc(OC)cc3)oc2c1 (stereo not drawn)
2. O=C(Nc1ccccc1Cl)NC1CCCCCCC1
3. COc1ccc(-c2cc([C@H]3[C@H]4C=CC[C@@H](C)[C@@H]4C(=O)N3Cc3ccccc3)ccc2F)cc1OC
4. Fc1ccc(Nc2nnc(-c3ccncc3)s2)cc1Cl

result:
1: 3.04 µM; 2: 5.67 µM; 3: 17.8 µM; 4: 4.42 µM

###

Tested on: mESC Bmi1-luciferase reporter, firefly/renilla ratio, 24 h
Assay: compounds raising Bmi1 reporter signal – mouse embryonic stem cells, luciferase, cherry-pick, esBAF inhibitor project, dose response (AID 651717);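 further: luciferase knocked into Bmi1 locus with EF-1a renilla as cell number control; rising ratio signals esBAF inhibition which derepresses Bmi1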
Record form. Attribute: AC40. Fill in for each entry.

Examples from the recorded data:
[[record]]
molecule = "COc1ccccc1/C=C/C=N/n1c(-c2ccccn2)n[nH]c1=S"
data_value = "9.01 µM"

[[record]]
molecule = "Cc1ccc(C)c(NC(=O)c2cc(-c3ccccc3O)n[nH]2)c1"
data_value = "11.5 µM"

[[record]]
molecule = "O=C(CC(=O)c1ccccc1)c1ccccc1"
data_value = "2.47 µM"

[[record]]
molecule = "COc1ccc(/C=N/NC(=O)Cc2cccs2)cc1"
data_value = "8.51 µM"


Take each entry in turn and give its AC40.
1. Cc1ccc(/C(N)=N/OC(=O)CCc2ccccc2)cc1
2. CC(C)Cn1cnc2c(SCc3ccccc3)nc(N)nc21
3. CCN(C(=O)CN1C(=O)S/C(=C\C=C\c2ccccc2)C1=O)C1CCS(=O)(=O)C1 (stereo not drawn)
4. CN(C)c1cccc(-c2csc(N3CCC(C(N)=O)CC3)n2)c1
5. Cc1cc2ncn(C(=O)N3CCC(C)CC3)c2cc1C
6. c1ccc(-c2cnnc(N3CCCCC3)n2)cc1
7. CCn1c(COc2ccccc2C)nc2ccccc21
8. CC(c1ccccc1)c1nnc(NC(=O)Nc2ccccc2F)s1 (stereo not drawn)

result:
["11 µM", "8.9 µM", "3.85 µM", "0.362 µM", "7.84 µM", "1.99 µM", "3.51 µM", "6.51 µM"]

Take each entry in turn and give its AC40.
1. N/C(=N\OC(=O)CC1CCCCC1)c1ccccn1
2. O=C(NC1CCCCC1)N1CCc2ccccc2C1
3. O=C(Cc1ccccc1)N/N=C/c1ccccc1OCc1ccc(Cl)cc1
4. COC(=O)C(Cc1c[nH]c2ccccc12)NC(=O)c1ccc2nc[nH]c2c1 (stereo not drawn)
5. COc1ccccc1NC(=O)CSc1nc2sc3c(c2c(=O)n1-c1ccccc1)CCN(C)C3
6. CC(C)CC1C(=O)N(Cc2cn(CCC3OCCCO3)nn2)CCS(=O)(=O)N1Cc1ccc(-c2ccc(Cl)nc2)cc1 (stereo not drawn)

result:
1. 3.84 µM
2. 6.76 µM
3. 4.61 µM
4. 14.7 µM
5. 19.1 µM
6. 12.9 µM

Take each entry in turn and give its AC40.
1. O=C(c1cccs1)N(C(=O)c1cccs1)c1ccc(Br)cn1
2. CCc1ccccc1NC(=O)c1cc(-c2cccc(O)c2)on1
3. CO[C@@H]1CN(C)C(=O)c2ccc(NC(=O)Nc3ccc4c(c3)OCO4)cc2OC[C@@H](C)NC[C@@H]1C
4. CC(=O)Nc1ccccc1OCc1nnc(-c2ccc(Cl)cc2)o1
5. Cc1cc(C)c2nc(N3CCCC(C(=O)NC4CCCC4)C3)sc2c1 (stereo not drawn)

result:
1: 1.09 µM; 2: 5.03 µM; 3: 2.93 µM; 4: 8.95 µM; 5: 9.66 µM

###

System: mESC Bmi1-luciferase reporter, firefly/renilla ratio, 24 h
Assay: compounds raising Bmi1 reporter signal – mouse embryonic stem cells, luciferase, cherry-pick, esBAF inhibitor project, dose response (AID 651717);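 further: luciferase knocked into Bmi1 locus with EF-1a renilla as cell number control; rising ratio signals esBAF inhibition which derepresses Bmi1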
Record form. Attribute: AC40. Fill in for each entry.

Examples from the recorded data:
[[record]]
compound = "Cc1cccc(NC(=O)c2ccccn2)c1C"
readout_label = "AC40"
data_value = "3.69 µM"

[[record]]
compound = "CNc1cncc(-c2cccc(OC)c2F)n1"
readout_label = "AC40"
data_value = "1.24 µM"

[[record]]
compound = "Cn1c(-c2ncc(F)cc2F)cc2onc(-c3c(F)cccc3Cl)c2c1=O"
readout_label = "AC40"
data_value = "0.47 µM"


Take each entry in turn and give its AC40.
1. O=C(Nc1ccccc1Cl)c1cc(=O)c2ccccc2o1
2. CNc1oc(-c2ccc(OCc3ccccc3)cc2)nc1C#N
3. O=C(N/N=C/c1cnc2ccccc2n1)c1cccc(F)c1
4. C=CCNc1nc(-c2ccc(O)c(C(N)=O)c2)cs1
5. COc1cc(C=O)c(Br)cc1OCc1ccc(C)cc1
6. O=C(Nc1ccccc1)c1cc(C2CCCCN2S(=O)(=O)c2cccs2)on1 (centres undefined)
7. Cc1ccc(NC(=O)CN(C)S(=O)(=O)c2cccs2)cc1C
8. CCN1CCN(c2ccc(NC(=O)c3cccc(N4CCCC4=O)c3)cc2)CC1

result:
1: 0.468 µM; 2: 24.4 µM; 3: 4.89 µM; 4: 6.2 µM; 5: 4.67 µM; 6: 9.04 µM; 7: 2.98 µM; 8: 10.3 µM

Take each entry in turn and give its AC40.
1. CC(C)C(=O)Nc1ccc(C(=O)c2ccccc2)cc1
2. Cc1ccc(C)c(N2CCN(C(=O)CCc3nc(-c4cccc(Cl)c4)no3)CC2)c1
3. Cn1c(=NC(=O)C2CC2)sc2cc(F)cc(F)c21
4. CCCOc1ccc(NC(=O)C2CC(=O)N/C(=N/N=C(C)/C=C/c3ccc(N(C)C)cc3)S2)cc1 (centres undefined)
5. C/C(=N\OCc1ccc(C#N)cc1)c1ccc(S(=O)(=O)N(C)C)cc1
6. O=C(NCCO)c1cccc(-c2cnc3c(Nc4cccc(OC(F)(F)C(F)F)c4)nccn23)c1
7. O=C(Nc1cccc(O)c1)c1ccc(Br)cc1
8. COc1ccc(C(=O)CC(=O)c2ccccc2O)cc1OC

result:
8.18 µM
2.83 µM
16.6 µM
6 µM
7.91 µM
4.46 µM
2.45 µM
15.1 µM

Take each entry in turn and give its AC40.
1. CN(C)c1ccc(-c2csc(C(O)c3ccccc3)n2)cc1 (centres undefined)
2. CN(c1nc(-c2ccccc2)cs1)C1CCS(=O)(=O)C1 (centres undefined)
3. COc1ccc(Cc2c(-c3ccc(F)cc3)nc3ccc(Br)cn23)c(C)c1
4. COc1ccc(Cl)c(-c2cc(C(=O)Nc3ccc(F)cc3)[nH]n2)c1
5. CC/C(=N\NC(=O)c1cc(C2CC2)[nH]n1)c1ccccc1

result:
1: 0.311 µM; 2: 20.3 µM; 3: 3.51 µM; 4: 2.11 µM; 5: 4.25 µM

Where do the numbers come from? From PubChem BioAssay AID651717.
